Assay Info: Study 3: concentrations in plasma, epithelial lining fluid (ELF) and alveolar macrophages (AM) after 800 mg once daily for three days
Assay type: in vivo, human
Condition Summary: both sexes, human, epithelial lining fluid (ELF) / plasma (total); healthy subjects, 800 mg oral once daily for 3 days; sampling time 48 hr after third dose; mean ± SD; read-out: ELF to Plasma (Total) concentration ratio
Measurement Kind: Kp at 48 h
The answer should be written as a number, with no unit following it.

Consider the compound CC[C@@H]1OC(=O)[C@H](C)C(=O)[C@H](C)[C@@H](OC2O[C@H](C)C[C@H](N(C)C)[C@H]2O)[C@](C)(OC)C[C@@H](C)C(=O)[C@H](C)[C@H]2[C@H](/C(N)=N/O[C@@H](C)c3nnc(-c4ccccn4)s3)C(=O)O[C@@]21C (stereo partly shown) and give its measured Kp at 48 h.
27.2

====

Assay Info: Study 3: concentrations in plasma, epithelial lining fluid (ELF) and alveolar macrophages (AM) after 800 mg once daily for three days
Format: in vivo, human
Condition Summary: both sexes, human, epithelial lining fluid (ELF) / plasma (total); healthy subjects, 800 mg oral once daily for 3 days; sampling time 24 hr after third dose; mean ± SD; read-out: ELF to Plasma (Total) concentration ratio
Description: Healthy male and female subjects 18 years of age or older who met the study entry criteria were enrolled into the pharmacokinetic study. Each subject received 800 mg (2 tablets of 400 mg) of compound of Formula (I) administered once daily for three days, with 240 ml of drinking water at a consistent time within two hours after a standard meal and direct observation at the study site. […]
Measurement Kind: Kp at 24 h
The answer should be written as a number, with no unit following it.

Consider the compound CC[C@@H]1OC(=O)[C@H](C)C(=O)[C@H](C)[C@@H](OC2O[C@H](C)C[C@H](N(C)C)[C@H]2O)[C@](C)(OC)C[C@@H](C)C(=O)[C@H](C)[C@H]2[C@H](/C(N)=N/O[C@@H](C)c3nnc(-c4ccccn4)s3)C(=O)O[C@@]21C (stereo partly shown) and give its measured Kp at 24 h.
17.6

====

Assay Info: Study 3: concentrations in plasma, epithelial lining fluid (ELF) and alveolar macrophages (AM) after 800 mg once daily for three days
Assay type: in vivo, human
Condition Summary: both sexes, human, epithelial lining fluid (ELF) / plasma (total); healthy subjects, 800 mg oral once daily for 3 days; sampling time 6 hr after third dose; mean ± SD; read-out: ELF to Plasma (Total) concentration ratio
Measurement Kind: Kp at 6 h
The answer should be written as a number, with no unit following it.

Consider the compound CC[C@@H]1OC(=O)[C@H](C)C(=O)[C@H](C)[C@@H](OC2O[C@H](C)C[C@H](N(C)C)[C@H]2O)[C@](C)(OC)C[C@@H](C)C(=O)[C@H](C)[C@H]2[C@H](/C(N)=N/O[C@@H](C)c3nnc(-c4ccccn4)s3)C(=O)O[C@@]21C (stereo partly shown) and give its measured Kp at 6 h.
14.5

====

Assay Info: Study 3: concentrations in plasma, epithelial lining fluid (ELF) and alveolar macrophages (AM) after 800 mg once daily for three days
Assay type: in vivo, human
Condition Summary: both sexes, human, alveolar macrophages (AM) / plasma (total); healthy subjects, 800 mg oral once daily for 3 days; sampling time 9 hr after third dose; mean ± SD; read-out: AM to Plasma (Total) concentration ratio
Measurement Kind: Kp at 9 h
The answer should be written as a number, with no unit following it.

Consider the compound CC[C@@H]1OC(=O)[C@H](C)C(=O)[C@H](C)[C@@H](OC2O[C@H](C)C[C@H](N(C)C)[C@H]2O)[C@](C)(OC)C[C@@H](C)C(=O)[C@H](C)[C@H]2[C@H](/C(N)=N/O[C@@H](C)c3nnc(-c4ccccn4)s3)C(=O)O[C@@]21C (stereo partly shown) and give its measured Kp at 9 h.
383

====

Assay Info: Study 3: concentrations in plasma, epithelial lining fluid (ELF) and alveolar macrophages (AM) after 800 mg once daily for three days
Assay type: in vivo, human
Condition Summary: both sexes, human, alveolar macrophages (AM) / plasma (total); healthy subjects, 800 mg oral once daily for 3 days; sampling time 6 hr after third dose; mean ± SD; read-out: AM to Plasma (Total) concentration ratio
Method: Healthy male and female subjects 18 years of age or older who met the study entry criteria were enrolled into the pharmacokinetic study. Each subject received 800 mg (2 tablets of 400 mg) of compound of Formula (I) administered once daily for three days, with 240 ml of drinking water at a consistent time within two hours after a standard meal and direct observation at the study site. […]
Measurement Kind: Kp at 6 h
The answer should be written as a number, with no unit following it.

Consider the compound CC[C@@H]1OC(=O)[C@H](C)C(=O)[C@H](C)[C@@H](OC2O[C@H](C)C[C@H](N(C)C)[C@H]2O)[C@](C)(OC)C[C@@H](C)C(=O)[C@H](C)[C@H]2[C@H](/C(N)=N/O[C@@H](C)c3nnc(-c4ccccn4)s3)C(=O)O[C@@]21C (stereo partly shown) [compound of Formula (I)] and give its measured Kp at 6 h.
378

====

Assay Info: Study 3: concentrations in plasma, epithelial lining fluid (ELF) and alveolar macrophages (AM) after 800 mg once daily for three days
Format: in vivo, human
Condition Summary: both sexes, human, alveolar macrophages (AM) / plasma (total); healthy subjects, 800 mg oral once daily for 3 days; sampling time 48 hr after third dose; mean ± SD; read-out: AM to Plasma (Total) concentration ratio
Measurement Kind: Kp at 48 h
The answer should be written as a number, with no unit following it.

Consider the compound CC[C@@H]1OC(=O)[C@H](C)C(=O)[C@H](C)[C@@H](OC2O[C@H](C)C[C@H](N(C)C)[C@H]2O)[C@](C)(OC)C[C@@H](C)C(=O)[C@H](C)[C@H]2[C@H](/C(N)=N/O[C@@H](C)c3nnc(-c4ccccn4)s3)C(=O)O[C@@]21C (stereo partly shown) and give its measured Kp at 48 h.
428

====

Assay Info: Study 3: concentrations in plasma, epithelial lining fluid (ELF) and alveolar macrophages (AM) after 800 mg once daily for three days
Format: in vivo, human
Condition Summary: both sexes, human, epithelial lining fluid (ELF) / plasma (total), oral; range over the 48-hour period after drug administration, 800 mg once daily for 3 days; read-out: mean ratio of ELF to simultaneous total plasma concentration
Description: Healthy male and female subjects 18 years of age or older who met the study entry criteria were enrolled into the pharmacokinetic study. Each subject received 800 mg (2 tablets of 400 mg) of compound of Formula (I) administered once daily for three days, with 240 ml of drinking water at a consistent time within two hours after a standard meal and direct observation at the study site. […]
Measurement Kind: Kp

Consider the molecule CC[C@@H]1OC(=O)[C@H](C)C(=O)[C@H](C)[C@@H](OC2O[C@H](C)C[C@H](N(C)C)[C@H]2O)[C@](C)(OC)C[C@@H](C)C(=O)[C@H](C)[C@H]2[C@H](/C(N)=N/O[C@@H](C)c3nnc(-c4ccccn4)s3)C(=O)O[C@@]21C (stereo partly shown) [compound of Formula (I)] and give its measured Kp.
10 to 30

====

Assay Info: Study 3: concentrations in plasma, epithelial lining fluid (ELF) and alveolar macrophages (AM) after 800 mg once daily for three days
Format: in vivo, human
Condition Summary: both sexes, human, epithelial lining fluid (ELF) / plasma (total); healthy subjects, 800 mg oral once daily for 3 days; sampling time 12 hr after third dose; mean ± SD; read-out: ELF to Plasma (Total) concentration ratio
Description: Healthy male and female subjects 18 years of age or older who met the study entry criteria were enrolled into the pharmacokinetic study. Each subject received 800 mg (2 tablets of 400 mg) of compound of Formula (I) administered once daily for three days, with 240 ml of drinking water at a consistent time within two hours after a standard meal and direct observation at the study site. […]
Measurement Kind: Kp at 12 h
The answer should be written as a number, with no unit following it.

Consider the molecule CC[C@@H]1OC(=O)[C@H](C)C(=O)[C@H](C)[C@@H](OC2O[C@H](C)C[C@H](N(C)C)[C@H]2O)[C@](C)(OC)C[C@@H](C)C(=O)[C@H](C)[C@H]2[C@H](/C(N)=N/O[C@@H](C)c3nnc(-c4ccccn4)s3)C(=O)O[C@@]21C (stereo partly shown) [compound of Formula (I)] and give its measured Kp at 12 h.
12.4

====

Assay Info: Study 3: concentrations in plasma, epithelial lining fluid (ELF) and alveolar macrophages (AM) after 800 mg once daily for three days
Type: in vivo, human
Condition Summary: both sexes, human, alveolar macrophages (AM) / plasma (total); healthy subjects, 800 mg oral once daily for 3 days; sampling time 12 hr after third dose; mean ± SD; read-out: AM to Plasma (Total) concentration ratio
Measurement Kind: Kp at 12 h
The answer should be written as a number, with no unit following it.

Consider the molecule CC[C@@H]1OC(=O)[C@H](C)C(=O)[C@H](C)[C@@H](OC2O[C@H](C)C[C@H](N(C)C)[C@H]2O)[C@](C)(OC)C[C@@H](C)C(=O)[C@H](C)[C@H]2[C@H](/C(N)=N/O[C@@H](C)c3nnc(-c4ccccn4)s3)C(=O)O[C@@]21C (stereo partly shown) and give its measured Kp at 12 h.
791
